Each entry below carries its recorded pKd.
ASSAY SYSTEM: LC3B (human, UniProt Q9GZQ8 1-120)
ASSAY SUMMARY: BLI
pKd: −log10 of the molar value. Where no end group is shown, it is not given here. The star is where a group is joined. Biotin = O=C1N[C@H]2[C@H](CS[C@H]2CCCCC(=O)*)N1
READOUT: pKd

binder="Biotin-ALTEDSIDDTFLPVPEYINQSVPK [EGFR LIR1 peptide (EGFR residues 1076–1099), N-terminally biotinylated]" observed_measurement=3.36
binder="Biotin-STAENAEYLRVAPQSSEFIGA [EGFR LIR2 peptide (EGFR residues 1190–1210), N-terminally biotinylated]" observed_measurement=2.84
binder="Biotin-ISQKSDEEDFVKVED [PCM1 LIR peptide (pericentriolar material 1 protein residues 1954-1968), N-terminally biotinylated]" observed_measurement=3.43
